Biological target: ERK2 WT (Mus musculus, UniProt P63085)
Construct: His6; made in house; host or cells: E. coli BL21(DE3), co-expressed with GST-MEK1ΔN3
Sequence (P63085 whole entry): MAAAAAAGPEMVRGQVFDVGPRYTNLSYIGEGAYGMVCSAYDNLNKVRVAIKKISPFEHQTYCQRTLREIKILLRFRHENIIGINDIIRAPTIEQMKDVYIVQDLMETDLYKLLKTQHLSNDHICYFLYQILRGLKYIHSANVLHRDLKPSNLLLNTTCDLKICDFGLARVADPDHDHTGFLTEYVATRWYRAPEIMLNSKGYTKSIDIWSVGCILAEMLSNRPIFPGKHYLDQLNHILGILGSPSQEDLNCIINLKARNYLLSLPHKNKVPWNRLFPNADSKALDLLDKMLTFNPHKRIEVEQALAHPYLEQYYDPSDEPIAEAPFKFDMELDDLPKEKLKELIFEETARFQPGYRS
Assay: Competitive peptide kinase assay (D-peptide inhibition), ERK2 WT
Type: biochemical
Conditions: Table S1, 5 μM reporter peptide, 10 nM ERK2, 10 μM ATP, three independent experiments
Peptide text beside a SMILES is read from it.
Assay metric: pIC50
The meaning of pIC50 here: minus log10 of the concentration in molar units.

CC(C)C[C@H](NC(=O)CNC(=O)[C@H](CCCCN)NC(=O)[C@H](Cc1ccccc1)NC(=O)[C@H](CC(N)=O)NC(=O)[C@H](CCCCN)NC(=O)[C@H](Cc1c[nH]c2ccccc12)NC(=O)[C@H](CCCCN)NC(=O)[C@@H]1CCCN1C(=O)[C@H](CO)NC(=O)[C@H](C)NC(=O)[C@@H](N)Cc1ccc(O)cc1)C(=O)N[C@@H](CCCCN)C(=O)N[C@@H](CC(C)C)C(=O)N[C@@H](CC(C)C)C(=O)N[C@@H](CS)C(=O)O [MLXIPL] (H-YASPKWKNFKGLKLLC-OH): 4.74
CC[C@H](C)[C@H](NC(=O)[C@@H](NC(=O)[C@H](CCC(=O)O)NC(=O)[C@H](CCSC)NC(=O)[C@H](CCC(N)=O)NC(=O)[C@H](CCCNC(=N)N)NC(=O)[C@H](CCCNC(=N)N)NC(=O)[C@H](CC(N)=O)NC(=O)[C@H](CCCNC(=N)N)NC(=O)[C@H](CC(C)C)NC(=O)[C@H](C)NC(=O)[C@@H](N)Cc1ccc(O)cc1)C(C)C)C(=O)N[C@@H](CO)C(=O)N[C@@H](CC(C)C)C(=O)N[C@@H](CCCNC(=N)N)C(=O)N[C@@H](CC(C)C)C(=O)O [DISC1] (H-YALRNRRQMEVISLRL-OH): 4.64
CC[C@H](C)[C@H](NC(=O)[C@@H](NC(=O)[C@H](CC(C)C)NC(=O)[C@H](C)NC(=O)[C@@H]1CCCN1C(=O)[C@H](CC(C)C)NC(=O)[C@@H](NC(=O)[C@@H]1CCCN1C(=O)[C@H](CCCCN)NC(=O)[C@H](CCCNC(=N)N)NC(=O)[C@H](CCCNC(=N)N)NC(=O)[C@H](C)NC(=O)[C@H](C)NC(=O)[C@@H](N)Cc1ccc(O)cc1)C(C)C)[C@@H](C)O)C(=O)N[C@@H](CC(N)=O)C(=O)N1CCC[C@H]1C(=O)O [MAP2K2] (H-YAARRKPVLPALTINP-OH): 4.64
CC(C)C[C@H](NC(=O)[C@H](CC(C)C)NC(=O)[C@H](CC(C)C)NC(=O)[C@H](CCCNC(=N)N)NC(=O)[C@H](CCCCN)NC(=O)[C@@H]1CCCN1C(=O)[C@H](CCCCN)NC(=O)[C@@H]1CCCN1C(=O)CNC(=O)[C@H](CCCNC(=N)N)NC(=O)[C@H](CCCCN)NC(=O)[C@H](CCCNC(=N)N)NC(=O)[C@H](C)NC(=O)[C@@H](N)Cc1ccc(O)cc1)C(=O)N[C@@H](CCC(N)=O)C(=O)N[C@@H](CCCNC(=N)N)C(=O)O [CBX7] (H-YARKRGPKPKRLLLQR-OH): 5.29
CSCC[C@H](NC(=O)[C@H](CC(C)C)NC(=O)[C@H](C)NC(=O)[C@@H](N)Cc1ccc(O)cc1)C(=O)N[C@@H](CCC(=O)O)C(=O)N[C@@H](CCCNC(=N)N)C(=O)N[C@@H](CCCNC(=N)N)C(=O)N[C@@H](CCCNC(=N)N)C(=O)N[C@@H](CC(C)C)C(=O)N[C@@H](CC(N)=O)C(=O)N[C@@H](CCC(N)=O)C(=O)N[C@@H](CC(C)C)C(=O)N[C@@H](CC(C)C)C(=O)N[C@@H](CC(C)C)C(=O)N1CCC[C@H]1C(=O)N[C@@H](CC(C)C)C(=O)O [ANAPC5] (H-YALMERRRLNQLLLPL-OH): 4.49

Attention now shifts to the item below.
Input: Output measured pIC50 for this item: CC[C@H](C)[C@H](NC(=O)[C@H](CC(C)C)NC(=O)[C@@H]1CCCN1C(=O)[C@H](CCC(=O)O)NC(=O)[C@@H]1CCCN1C(=O)[C@H](CCCNC(=N)N)NC(=O)[C@@H]1CCCN1C(=O)[C@H](CCCNC(=N)N)NC(=O)[C@H](CCC(N)=O)NC(=O)[C@H](CCCCN)NC(=O)[C@@H]1CCCN1C(=O)[C@H](C)NC(=O)[C@@H](N)Cc1ccc(O)cc1)C(=O)N[C@H](C(=O)N1CCC[C@H]1C(=O)N[C@H](C(=O)O)[C@@H](C)O)[C@@H](C)CC [ELMSAN1] (H-YAPKQRPRPEPLIIPT-OH)
Output: 4.62

Value source: paper PMC11982978
